Recorded log10(Agonist activity (EC50, M)), one value per entry.
# assay-system: T1, human GIPR (human), P48546
# T1 chain: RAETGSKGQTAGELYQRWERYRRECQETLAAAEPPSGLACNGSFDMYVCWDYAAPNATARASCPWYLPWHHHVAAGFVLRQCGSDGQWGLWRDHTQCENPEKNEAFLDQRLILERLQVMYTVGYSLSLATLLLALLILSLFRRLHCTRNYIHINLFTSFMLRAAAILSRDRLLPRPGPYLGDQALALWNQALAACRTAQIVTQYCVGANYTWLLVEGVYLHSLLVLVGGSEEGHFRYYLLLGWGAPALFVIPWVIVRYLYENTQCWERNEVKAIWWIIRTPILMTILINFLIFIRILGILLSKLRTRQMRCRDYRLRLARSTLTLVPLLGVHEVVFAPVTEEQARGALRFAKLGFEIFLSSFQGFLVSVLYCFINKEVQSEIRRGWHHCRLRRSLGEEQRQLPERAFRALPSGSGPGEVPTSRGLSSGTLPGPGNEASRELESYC
Non-standard residues stand in square brackets, D forms with d. Groups on a side chain read outwards from the residue. Primed or numbered codes have the meaning given here. No end group written: not given here. *: point of attachment. C20 diacid = O=C(O)CCCCCCCCCCCCCCCCCCC(=O)*; NMeY = CN[C@@H](Cc1ccc(O)cc1)C(=O)O; αMeF = C[C@](N)(Cc1ccccc1)C(=O)O; Lauroyl = CCCCCCCCCCCC(=O)*; dIva = CC[C@@](C)(N)C(=O)O; Iva = CC[C@](C)(N)C(=O)O; PEG2′ = not defined here; Aib = CC(C)(N)C(=O)O
Field: value | Transform: log10 | Quantity: Agonist activity (EC50, M) | Unit: M

[
  {
    "binder": "[NMeY][Aib]EGTFISDYSI[dIva]LDR[Aib]AQ[Aib]NFVNW[Iva]LAQRPSSGAPPPSR (ends and bridges not checked) [Compound 85]",
    "outcome-measure": "log10(Agonist activity (EC50, M))",
    "result-value": -11.96
  }
]

Asked: Could you please provide reported log10(Agonist activity (EC50, M)) for Y[Aib]EGTFISDYSK([PEG2′-Lauroyl])ALDRIAQQDFVNWLLAQRPSSGAPPPSR (ends and bridges not checked) [Compound 184] ? Thanks!
Given back: -11.44

Asked: Could you please provide reported log10(Agonist activity (EC50, M)) for [NMeY][Aib]EGTFISDYSI[dIva]LDRIAQ[Aib]NFVNWLLAQRPSSGAPPPSR (ends and bridges not checked) [Compound 83] ? Thanks!
Given back: -11.77

Asked: Could you please provide reported log10(Agonist activity (EC50, M)) for [NMeY][Aib]EGTFISDYSI[dIva]LDRIAQ[Aib]NFVNW[Iva]LAQRPSSGAPPPSR (ends and bridges not checked) [Compound 92] ? Thanks!
Given back: -11.89

Asked: Could you please provide reported log10(Agonist activity (EC50, M)) for [NMeY][Aib]EGTFISDYSI[dIva]LDRIAQQDFVNWLLAQRPSSGAPPPS (ends and bridges not checked) [Compound 63] ? Thanks!
Given back: -11.92

Asked: Could you please provide reported log10(Agonist activity (EC50, M)) for Y[Aib]EGTFISDYSIALDRK([PEG(2)-dodec])HQ[Aib]NFVNW[Iva]LAQRPSSGAPPPS (not fully specified (C-terminus); ends and bridges not checked) [Compound 239] ? Thanks!
Given back: -11.60

Asked: Could you please provide reported log10(Agonist activity (EC50, M)) for [NMeY][Aib]EGTFISDYSIALDR[Aib]AQ[Aib]NFVNWLLAQRPSSGAPPPSR (ends and bridges not checked) [Compound 82] ? Thanks!
Given back: -11.85

Asked: Could you please provide reported log10(Agonist activity (EC50, M)) for [NMeY][Aib]EGTFISDYSIALDRIHQ[Aib]NFVNWLLAQRPSSGAPPPSR (not fully specified (N-terminus, C-terminus); ends and bridges not checked) [Compound 142] ? Thanks!
Given back: -11.64

Asked: Could you please provide reported log10(Agonist activity (EC50, M)) for Y[Aib]EGTVVSLYSK([Gly-Gly-Gly-Gly-C20 diacid])[Aib]LDRQAQ[Aib]EFVK(Ac)WLLAQR (ends and bridges not checked) [Compound 259] ? Thanks!
Given back: -9.92

Asked: Could you please provide reported log10(Agonist activity (EC50, M)) for [NMeY][Aib]EGTFISDYSIALDRIAQ[Aib]SFVNW[Iva]LAQRPSSGAPPPSR (not fully specified (N-terminus, C-terminus); ends and bridges not checked) [Compound 124] ? Thanks!
Given back: -11.77

Asked: Could you please provide reported log10(Agonist activity (EC50, M)) for [NMeY][Aib]EGTFISDYSI[dIva]LDR[Aib]AQ[Aib]N[αMeF]VNWLLAQRPSSGAPPPSR (not fully specified (N-terminus, C-terminus); ends and bridges not checked) [Compound 106] ? Thanks!
Given back: -11.77

Asked: Could you please provide reported log10(Agonist activity (EC50, M)) for Y[Aib]EGTFISDYSIALDRK([PEG(2)-Pal])HQQDFVNWLLAQRPSSGAPPPS (not fully specified (C-terminus); ends and bridges not checked) [Compound 233] ? Thanks!
Given back: -11.42

Asked: Could you please provide reported log10(Agonist activity (EC50, M)) for Y[Aib]EGTFISDYSIALDRK([PEG(2)-C20 diacid])AQQNFVNW[Iva]LAQRPSSGAPPPS (ends and bridges not checked) [Compound 385] ? Thanks!
Given back: -10.08
